Provide the recorded Activity for the entries that follow.
Molecular target: Estrogen receptor (Mus musculus) (UniProt O08537+P19785)
Sequence (O08537 whole entry, looked up): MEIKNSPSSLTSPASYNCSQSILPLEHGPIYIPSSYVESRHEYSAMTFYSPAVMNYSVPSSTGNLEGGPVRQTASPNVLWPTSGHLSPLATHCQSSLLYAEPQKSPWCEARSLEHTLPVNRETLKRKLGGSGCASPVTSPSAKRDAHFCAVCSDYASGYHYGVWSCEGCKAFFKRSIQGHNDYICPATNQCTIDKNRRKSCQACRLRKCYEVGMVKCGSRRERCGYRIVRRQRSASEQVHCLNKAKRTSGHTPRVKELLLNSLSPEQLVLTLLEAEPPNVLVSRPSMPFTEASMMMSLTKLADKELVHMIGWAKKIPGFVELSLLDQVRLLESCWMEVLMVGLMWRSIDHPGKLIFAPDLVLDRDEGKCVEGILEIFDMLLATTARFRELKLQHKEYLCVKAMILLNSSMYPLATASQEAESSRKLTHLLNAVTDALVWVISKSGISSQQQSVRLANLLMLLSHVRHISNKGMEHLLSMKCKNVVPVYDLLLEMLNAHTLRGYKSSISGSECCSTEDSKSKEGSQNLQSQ
Sequence (P19785 whole entry, looked up): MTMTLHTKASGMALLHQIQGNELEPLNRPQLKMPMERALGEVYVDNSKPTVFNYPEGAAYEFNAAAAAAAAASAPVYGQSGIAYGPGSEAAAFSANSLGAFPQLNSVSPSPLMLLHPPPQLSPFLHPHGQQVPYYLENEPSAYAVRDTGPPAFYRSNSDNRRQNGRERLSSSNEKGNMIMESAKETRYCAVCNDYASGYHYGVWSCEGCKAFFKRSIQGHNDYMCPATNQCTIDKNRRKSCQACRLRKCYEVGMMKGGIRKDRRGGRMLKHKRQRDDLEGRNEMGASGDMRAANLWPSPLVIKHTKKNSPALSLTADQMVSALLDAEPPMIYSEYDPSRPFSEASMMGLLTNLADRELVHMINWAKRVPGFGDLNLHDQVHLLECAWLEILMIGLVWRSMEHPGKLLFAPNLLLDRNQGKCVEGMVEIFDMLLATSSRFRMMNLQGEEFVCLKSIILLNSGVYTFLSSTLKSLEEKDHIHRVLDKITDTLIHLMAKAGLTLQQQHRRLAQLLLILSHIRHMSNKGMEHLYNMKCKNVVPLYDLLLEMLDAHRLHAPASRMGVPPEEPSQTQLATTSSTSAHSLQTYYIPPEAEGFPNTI
Assay: Estrogenic effect in uterotrophic assay in immature mice at 1 ug dose
Type: functional

Tell us which Activity value is on record for CC(=O)Oc1ccc(C(=C(CC(F)(F)F)c2ccccc2)c2ccc(OC(C)=O)cc2)cc1
62

Tell us which Activity value is on record for CC(=O)Oc1ccc(C(=Cc2ccccc2)c2ccc(OC(C)=O)cc2)cc1
11

Tell us which Activity value is on record for CCCC(=C(c1ccc(OC(C)=O)cc1)c1ccc(OC(C)=O)cc1)c1ccccc1
31

Tell us which Activity value is on record for CC(=O)Oc1ccc(C(=C(c2ccccc2)C(C)C)c2ccc(OC(C)=O)cc2)cc1
60

Tell us which Activity value is on record for CCC1(c2ccccc2)OC1(c1ccc(OC(C)=O)cc1)c1ccc(OC(C)=O)cc1 (stereo not drawn)
2

Tell us which Activity value is on record for CCC(=C(c1ccc(OC(C)=O)cc1)c1ccc(OC(C)=O)cc1)c1ccccc1
37

Tell us which Activity value is on record for CCC(c1ccccc1)C(c1ccc(OC(C)=O)cc1)c1ccc(OC(C)=O)cc1 (stereo not drawn)
17

Tell us which Activity value is on record for CC(=O)Oc1ccc(C(=C(C)c2ccccc2)c2ccc(OC(C)=O)cc2)cc1
125

---

Biological target: Estrogen receptor (Mus musculus) (UniProt O08537+P19785)
Assay: Anti-estrogenic effect in uterotrophic assay in immature mice at 5 ug dose
Format: functional
Provide the recorded inhibition for the entries that follow.
Dear colleague, please return just the value in %, with no unit written.

Tell us which inhibition value is on record for CCC(=C(c1ccc(OC(C)=O)cc1)c1ccc(OC(C)=O)cc1)c1ccccc1
0

Tell us which inhibition value is on record for CC(=O)Oc1ccc(C(=Cc2ccccc2)c2ccc(OC(C)=O)cc2)cc1
0

Tell us which inhibition value is on record for CC(=O)Oc1ccc(C(=C(c2ccccc2)C(C)C)c2ccc(OC(C)=O)cc2)cc1
0

Tell us which inhibition value is on record for CCCC(=C(c1ccc(OC(C)=O)cc1)c1ccc(OC(C)=O)cc1)c1ccccc1
0

Tell us which inhibition value is on record for CCC(c1ccccc1)C(c1ccc(OC(C)=O)cc1)c1ccc(OC(C)=O)cc1 (stereo unspecified)
0

Tell us which inhibition value is on record for CCC1(c2ccccc2)OC1(c1ccc(OC(C)=O)cc1)c1ccc(OC(C)=O)cc1 (stereo unspecified)
5

---

Target: Estrogen receptor (Mus musculus) (UniProt O08537+P19785)
Assay: Estrogenic effect in uterotrophic assay in immature mice at 5 ug dose
Type: functional
Provide the recorded Activity for the entries that follow.
Returns: the value as a bare number; no unit string appended.

Tell us which Activity value is on record for CCC1(c2ccccc2)OC1(c1ccc(OC(C)=O)cc1)c1ccc(OC(C)=O)cc1 (stereo not drawn)
2

Tell us which Activity value is on record for CC(=O)Oc1ccc(C(=C(CC(F)(F)F)c2ccccc2)c2ccc(OC(C)=O)cc2)cc1
140

Tell us which Activity value is on record for CCC(=C(c1ccc(OC(C)=O)cc1)c1ccc(OC(C)=O)cc1)c1ccccc1
72

Tell us which Activity value is on record for CCCC(=C(c1ccc(OC(C)=O)cc1)c1ccc(OC(C)=O)cc1)c1ccccc1
42

Tell us which Activity value is on record for CC(=O)Oc1ccc(C(=C(c2ccccc2)C(C)C)c2ccc(OC(C)=O)cc2)cc1
87

Tell us which Activity value is on record for CC(=O)Oc1ccc(C(=C(C)c2ccccc2)c2ccc(OC(C)=O)cc2)cc1
108

Tell us which Activity value is on record for CCC(c1ccccc1)C(c1ccc(OC(C)=O)cc1)c1ccc(OC(C)=O)cc1 (stereo not drawn)
42

Tell us which Activity value is on record for CC(=O)Oc1ccc(C(=Cc2ccccc2)c2ccc(OC(C)=O)cc2)cc1
13
